Cited source: ChEMBL document CHEMBL4811291

# Assay procedure: Clearance in Wistar Han rat at 0.05 mg/kg, iv
# Format: ADME, organism-based
# Experimental setup: in vivo
Outcome measure: clearance

Retrieve clearance measured for "CCC(=O)CCCCC[C@@H]1NC(=O)[C@H]2CC23CCN(CCCCCCCCn2ccc4cc(ccc4c2=O)-c2cnc1[nH]2)CC3" and print it.
312 mL/min/kg

----------
# Test system: Human immunodeficiency virus
# Assay procedure: Reactivation of HIV latency infected in human 2C4 cells in presence of 0.1 % NHS by luciferase reporter gene assay
# Assay type: functional, organism-based
# Experimental setup: Human immunodeficiency virus 1, 2C4
Outcome measure: EC50 (µM)
Form entry: value (µM) — number only.

Below, 3 compounds whose answers are already recorded.
Retrieve EC50 measured for "CCC(=O)CCCCC[C@H](NC(=O)C1CN(C)C1)c1[nH]c(-c2ccccc2)nc1C(N)=O" and print it.
0.294

Retrieve EC50 measured for CCC(=O)CCCCC[C@@H]1NC(=O)C2CCN2CCCCCOc2ccccc2-c2cnc1[nH]2 (stereo in doubt; 4) and print it.
3.17

Retrieve EC50 measured for "CCC(=O)CCCCC[C@@H]1NC(=O)[C@H]2CC23CCN(CCCCCn2c(=O)ccc4cc(ccc42)-c2cnc1o2)CC3" and print it.
5.15

Now for a further compound.
Retrieve EC50 measured for "CCC(=O)CCCCC[C@@H]1NC(=O)[C@H]2CC23CCN(CCCCCCCCn2ccc4cc(c(OC)cc4c2=O)-c2cnc1[nH]2)CC3" and print it.
0.011
